Biological target: factor Xa (Homo sapiens, UniProt P00742)
Sequence (P00742 235-488 limits assumed): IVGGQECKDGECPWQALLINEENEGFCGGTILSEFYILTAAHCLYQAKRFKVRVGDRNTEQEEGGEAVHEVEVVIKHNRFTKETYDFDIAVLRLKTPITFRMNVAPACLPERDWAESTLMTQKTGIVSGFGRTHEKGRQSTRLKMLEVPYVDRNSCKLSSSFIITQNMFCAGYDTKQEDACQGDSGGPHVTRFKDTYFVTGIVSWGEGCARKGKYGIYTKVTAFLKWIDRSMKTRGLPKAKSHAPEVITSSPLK
Sequence (P00742 41-179 limits assumed): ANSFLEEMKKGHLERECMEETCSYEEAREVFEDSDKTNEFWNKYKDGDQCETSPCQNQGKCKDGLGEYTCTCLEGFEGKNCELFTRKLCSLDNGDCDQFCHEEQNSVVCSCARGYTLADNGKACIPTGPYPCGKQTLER
Assay: Factor Xa assay (Test 1a), chromogenic
Format: biochemical
Set-up: purchased Enzyme Research Laboratories, Inc; South Bend, Ind
Conditions: in vitro factor Xa assay Test 1a; human factor Xa 0.5 nM, substrate S-2765 140 μM, 25° C.; Ki from IC50 corrected for substrate competition
outcome measure: Ki (nM)
One number for each entry, in nM.

Examples from the recorded data:
1. N=C(N)c1ccc(CC(C(=O)N[C@H](C(=O)NCC2CCN(C(=N)N)CC2)C2CCCCC2)c2ccccc2Cl)cc1 (single isomer, unassigned; less polar) : 1
2. N=C(N)c1ccc(CC(C(=O)NC(C(=O)NCC2CCN(C(=N)N)CC2)C2CCCCC2)c2cccc(Br)c2)cc1 (single isomer, unassigned; less polar) : 2
3. N=C(N)NCCCC(NC(=O)C(NC(=O)C(Cc1ccc(C(=N)N)cc1)c1ccc(Br)cc1)C1CCCCC1)C(N)=O (single isomer, unassigned; less polar) : 11
4. CC(C)OC(=O)[C@H](CCCNC(=N)N)NC(=O)[C@@H](NC(=O)C(Cc1ccc(C(=N)N)cc1)c1cccc(Br)c1)C1CCCCC1 (single isomer, unassigned; less polar) [Example 242] : 2

Consider the record given below.
Would you mind telling me what Ki value was observed for N=C(N)c1ccc(CC(C(=O)NC(C(=O)NCC2CCN(C(=N)N)CC2)C2CCCCC2)c2ccc3ccccc3c2)cc1 (single isomer, unassigned; less polar) ?
33

###

Molecular target: factor Xa (Homo sapiens)
Test: Factor Xa assay (Test 1a), chromogenic
Format: biochemical
Set-up: purchased Enzyme Research Laboratories, Inc; South Bend, Ind
Details: in vitro factor Xa assay Test 1a; human factor Xa 0.5 nM, substrate S-2765 140 μM, 25° C.; Ki from IC50 corrected for substrate competition
Counter-ions that a name gives are not always drawn.
outcome measure: Ki (nM)
Numbers only, in nM.

Examples from the recorded data:
1. CC(C)OC(=O)[C@H](CCCNC(=N)N)NC(=O)[C@@H](NC(=O)C(Cc1ccc(C(=N)N)cc1)c1cccc(Br)c1)C1CCCCC1 (single isomer, unassigned; more polar) [Example 243] : 25
2. Cc1cccc(C(Cc2ccc(C(=N)N)cc2)C(=O)NC(C(=O)NCC2CCN(C(=N)N)CC2)C2CCCCC2)c1 (single isomer, unassigned; less polar) [Example 159] : 11
3. N=C(N)NCCC[C@H](NC(=O)[C@@H](NC(=O)C(Cc1ccc(C(=N)N)cc1)c1ccccc1)C1CCCCC1)C(N)=O (mixture of isomers) [Example 135] : 13
4. CCOC(=O)C(CCCNC(=N)N)NC(=O)C(NC(=O)C(Cc1ccc(C(=N)N)cc1)C1CCCCC1)C1CCCCC1 (single isomer, unassigned; less polar) [Example 5] : 5
5. N=C(N)c1ccc(CC(C(=O)NC(C(=O)NCC2CCN(C(=N)N)CC2)C2CCCCC2)c2ccc(Br)cc2)cc1 (single isomer, unassigned; less polar) [Example 177] : 1

Hi team, please reply with Ki for each item in this list.
1. N=C(N)NCCC[C@H](NC(=O)C(NC(=O)C(Cc1ccc(C(=N)N)cc1)C1CCCCC1)C1CCCCC1)C(=O)NCc1ccc(Cl)cc1 (stereo partly shown) [Example 201, trifluoroacetic acid salt]
2. N=C(N)NCCC[C@H](NC(=O)C(NC(=O)C(Cc1ccc(C(=N)N)cc1)C1CCCCC1)C1CCCCC1)C(=O)NC(c1ccccc1)c1ccccc1 (stereo partly shown) [Example 195, trifluoroacetic acid salt]

[42, 32]

Hi team, please reply with Ki for each item in this list.
1. CCOC(=O)[C@H](CCCNC(=N)N)NC(=O)[C@@H](NC(=O)C(Cc1ccc(C(=N)N)cc1)c1cccc(F)c1)C1CCCCC1 (mixture of isomers) [Example 126]
2. N=C(N)c1ccc(CNC(=O)[C@@H](NC(=O)C(Cc2ccc(C(=N)N)cc2)c2ccc3ccccc3c2)C2CCCCC2)cc1 (mixture of isomers) [Example 228]
3. N=C(N)c1ccc(CC(C(=O)N[C@H](C(=O)NCC2CCN(C(=N)N)CC2)C2CCCCC2)c2ccccc2)cc1 (single isomer, unassigned; less polar) [Example 222]

11
3
43
